# Test system: Flavobacterium 2 (Flavobacterium succinicans)
# procedure-details: relative growth (AUC of 72 h growth curve relative to DMSO control, dAUC) (ratio); higher = more growth (less inhibition), active = hit call of the paper
# measurement-setup: 20 µM
experimental-endpoint: relative growth

Here are 4 molecules together with their reported answers.
{"columns": ["molecule", "relative growth"],
 "data": [
  ["O=C(O)COc1ccc(Cl)cc1Cl", "1.02 (inactive)"],
  ["Cc1cc(C)nc(Nc2ccccc2)n1", "0.983 (inactive)"],
  ["CN/C(=N/CC1CCOC1)N[N+](=O)[O-] (stereo not given)", "1.02 (inactive)"],
  ["COP(=S)(OC)Oc1nc(Cl)c(Cl)cc1Cl", "0.97 (inactive)"]
]}

# lookup: relative growth of Cc1cc(C)c(C2=C(OC(=O)CC(C)(C)C)C3(CCCC3)OC2=O)c(C)c1
0.981 (inactive)
